Origin of measurements: paper PMC10786891

Molecular target: T1, EsCas13d, nuclease-dead (Eubacterium siraeum, UniProt B0MS50, R295A;H300A;R849A;H854A)
T1 sequence: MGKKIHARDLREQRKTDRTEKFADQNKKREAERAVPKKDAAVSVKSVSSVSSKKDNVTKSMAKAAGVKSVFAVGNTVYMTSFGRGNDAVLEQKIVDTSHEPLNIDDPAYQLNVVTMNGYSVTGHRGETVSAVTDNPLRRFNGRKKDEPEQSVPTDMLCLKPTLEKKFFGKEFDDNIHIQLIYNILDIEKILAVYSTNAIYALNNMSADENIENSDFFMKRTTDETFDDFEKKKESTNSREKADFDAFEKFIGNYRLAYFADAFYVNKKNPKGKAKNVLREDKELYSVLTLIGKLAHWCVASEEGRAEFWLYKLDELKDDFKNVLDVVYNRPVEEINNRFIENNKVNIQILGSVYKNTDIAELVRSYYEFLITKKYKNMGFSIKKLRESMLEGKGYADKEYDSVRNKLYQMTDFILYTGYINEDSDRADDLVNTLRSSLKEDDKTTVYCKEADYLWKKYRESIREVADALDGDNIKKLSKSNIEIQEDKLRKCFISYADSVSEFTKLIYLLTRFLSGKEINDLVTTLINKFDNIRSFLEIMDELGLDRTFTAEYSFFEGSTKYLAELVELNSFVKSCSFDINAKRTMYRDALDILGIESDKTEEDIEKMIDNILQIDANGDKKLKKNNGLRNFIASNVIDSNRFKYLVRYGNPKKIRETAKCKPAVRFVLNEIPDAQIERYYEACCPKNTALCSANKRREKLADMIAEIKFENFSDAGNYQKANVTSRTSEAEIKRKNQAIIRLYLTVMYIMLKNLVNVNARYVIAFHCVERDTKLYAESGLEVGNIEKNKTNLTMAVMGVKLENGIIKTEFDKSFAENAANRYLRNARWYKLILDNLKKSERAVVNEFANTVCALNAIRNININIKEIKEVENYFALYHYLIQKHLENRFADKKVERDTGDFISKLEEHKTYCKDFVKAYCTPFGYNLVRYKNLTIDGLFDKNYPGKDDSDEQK
Experiment: crRNA (strand 1, pre-loaded); Mg2+; 40 mM Tris-HCl pH 7.5, 150 mM NaCl, 6 mM MgCl2, 1 mM DTT, 0.1% Tween-20, 0.2 mg/ml BSA; 25 C; 10 min per concentration, then washed
Details: tags: His6-TwinStrep-SUMO cleaved; N-terminal SNAP kept (SNAP-Surface 488); label: 3' end held by stalled T7 RNA polymerase
experimental_endpoint: Kd (nM)
Number in nM, nothing else.

input: Item under review: target 1 C6U,A16U (mixed) RNA 1: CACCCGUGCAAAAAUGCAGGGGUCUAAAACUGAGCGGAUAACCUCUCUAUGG RNA 2: GGGAAUGGAUCCACAUCUACGAAUUCGUACCAUAGUGAGGUUAUCUGCUCACCGAGAUCGGAAGAGCACACGU . Reported Kd?
output: 37.1

input: Field entry: target 2 MT 5'PFS CAG 3'PFS AUA (mixed) RNA 1: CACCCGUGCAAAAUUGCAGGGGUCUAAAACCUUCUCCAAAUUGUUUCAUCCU RNA 2: GGGAAUGGAUCCACAUCUACGAAUUCCAGAGGAUGAAACAAUUUGGAGAAGAUAAGAUCGGAAGAGCACACGU
output: 4.5
